Target or system: PK (SSO0981) (Saccharolobus solfataricus, UniProt Q97ZD7)
Construct: full-length ORF in pET324, E. coli Rosetta (DE3) pRIL; heat precipitation, ion exchange, gel filtration; no tag mentioned
Sequence (Q97ZD7 1-452): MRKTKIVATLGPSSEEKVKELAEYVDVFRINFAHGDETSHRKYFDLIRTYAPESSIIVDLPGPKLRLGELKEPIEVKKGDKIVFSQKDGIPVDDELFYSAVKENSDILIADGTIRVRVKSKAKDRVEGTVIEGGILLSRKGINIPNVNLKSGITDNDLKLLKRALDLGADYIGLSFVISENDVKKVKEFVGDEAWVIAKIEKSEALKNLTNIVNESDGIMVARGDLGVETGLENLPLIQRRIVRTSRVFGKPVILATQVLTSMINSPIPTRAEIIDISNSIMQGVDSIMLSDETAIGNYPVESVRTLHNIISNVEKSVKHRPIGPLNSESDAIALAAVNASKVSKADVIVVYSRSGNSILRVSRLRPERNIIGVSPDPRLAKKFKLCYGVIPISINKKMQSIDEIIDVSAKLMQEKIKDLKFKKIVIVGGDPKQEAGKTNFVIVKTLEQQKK
Experiment: continuous LDH-coupled assay, NADH […] nm
Applied conditions: non-competitive, allosteric; printed Ki equals the approximate concentration for 50% inhibition; half-saturating 0.03 mM PEP, 2 mM ADP, 10 mM MgCl2, 60°C (b61 says 70°C)
Experimental endpoint: pIC50
Recall that pIC50 is obtained by taking minus log10 of the concentration measured in molar.

Give the measured pIC50 of `Nc1ncnc2c1ncn2[C@@H]1O[C@H](COP(=O)(O)OP(=O)(O)OP(=O)(O)O)[C@@H](O)[C@H]1O` .
3.10

The measurements presented in this section are drawn from paper PMC6474364.
